The values you see were collected from patent US20250049970A1.

Target: T1, DLL3 (target ligand immobilized on a SA sensor chip via streptavidin capture) (Homo sapiens (Human), UniProt Q9NYJ7 27-492, limits assumed)
T1 sequence: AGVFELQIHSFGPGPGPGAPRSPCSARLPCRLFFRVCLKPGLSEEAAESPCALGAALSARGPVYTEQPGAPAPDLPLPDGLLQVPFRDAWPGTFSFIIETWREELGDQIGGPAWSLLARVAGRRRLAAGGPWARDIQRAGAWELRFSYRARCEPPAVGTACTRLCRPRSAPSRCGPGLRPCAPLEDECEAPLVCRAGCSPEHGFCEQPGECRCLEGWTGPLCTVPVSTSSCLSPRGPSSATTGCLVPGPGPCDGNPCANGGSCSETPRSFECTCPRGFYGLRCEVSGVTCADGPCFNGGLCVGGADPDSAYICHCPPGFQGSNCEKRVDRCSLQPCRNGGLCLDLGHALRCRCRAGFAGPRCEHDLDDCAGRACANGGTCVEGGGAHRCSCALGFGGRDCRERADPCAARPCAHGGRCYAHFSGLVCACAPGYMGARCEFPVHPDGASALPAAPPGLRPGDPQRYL
Assay: SPR, Biacore S200, target ligand on SA chip, 25 C, 1:1 fit
Method: Target ligand was immobilized on a SA sensor chip via streptavidin capture. A reference surface was set up for nonspecific binding and refractive index changes. For analysis of the kinetics of interactions, varying concentrations of peptides were injected at a flow rate of 50 μL/minute using running buffer containing 20 mM phosphate buffer with 2.7 mM KCl, 137 mM NaCl and 0.05% Surfactant P20. […]
pKd: −log10 of the molar value. Bridges are numbered along the chain shown (N, C = ends). [ ]: non-standard residue; d: D form.
Metric name: pKd

Binder	Test value
Ac-MWTICNNWHDC[dA]P-NH2 (disulfide 5-11; SMILES CC[C@H](C)[C@H](NC(=O)[C@@H](NC(=O)[C@H](Cc1c[nH]c2ccccc12)NC(=O)[C@H](CCSC)NC(C)=O)[C@@H](C)O)C(=O)N[C@H]1CSSC[C@@H](C(=O)N[C@H](C)C(=O)N2CCC[C@H]2C(N)=O)NC(=O)[C@H](CC(=O)O)NC(=O)[C@H](Cc2c[nH]cn2)NC(=O)[C@H](Cc2c[nH]c3ccccc23)NC(=O)[C@H](CC(N)=O)NC(=O)[C@H](CC(N)=O)NC1=O) [SEQ ID NO 84]	6.62
Ac-WTICADWAQCWP-NH2 (disulfide 4-10; SMILES CC[C@H](C)[C@H](NC(=O)[C@@H](NC(=O)[C@H](Cc1c[nH]c2ccccc12)NC(C)=O)[C@@H](C)O)C(=O)N[C@H]1CSSC[C@@H](C(=O)N[C@@H](Cc2c[nH]c3ccccc23)C(=O)N2CCC[C@H]2C(N)=O)NC(=O)[C@H](CCC(N)=O)NC(=O)[C@H](C)NC(=O)[C@H](Cc2c[nH]c3ccccc23)NC(=O)[C@H](CC(=O)O)NC(=O)[C@H](C)NC1=O) [SEQ ID NO 68]	8.21
Ac-MSDCWLQWNCPFD-NH2 (disulfide 4-10; SMILES CSCC[C@H](NC(C)=O)C(=O)N[C@@H](CO)C(=O)N[C@@H](CC(=O)O)C(=O)N[C@H]1CSSC[C@@H](C(=O)N2CCC[C@H]2C(=O)N[C@@H](Cc2ccccc2)C(=O)N[C@@H](CC(=O)O)C(N)=O)NC(=O)[C@H](CC(N)=O)NC(=O)[C@H](Cc2c[nH]c3ccccc23)NC(=O)[C@H](CCC(N)=O)NC(=O)[C@H](CC(C)C)NC(=O)[C@H](Cc2c[nH]c3ccccc23)NC1=O) [SEQ ID NO 79]	7.49
Ac-MDCNFFDCDAWTW-NH2 (disulfide 3-8; SMILES CSCC[C@H](NC(C)=O)C(=O)N[C@@H](CC(=O)O)C(=O)N[C@H]1CSSC[C@@H](C(=O)N[C@@H](CC(=O)O)C(=O)N[C@@H](C)C(=O)N[C@@H](Cc2c[nH]c3ccccc23)C(=O)N[C@H](C(=O)N[C@@H](Cc2c[nH]c3ccccc23)C(N)=O)[C@@H](C)O)NC(=O)[C@H](CC(=O)O)NC(=O)[C@H](Cc2ccccc2)NC(=O)[C@H](Cc2ccccc2)NC(=O)[C@H](CC(N)=O)NC1=O) [SEQ ID NO 76]	6.54
